# test_method_notes: Retention time of the compound by reverse phase HPLC analysis
# Format: physicochemical
Where a SMILES comes first, the peptide text is derived from it. [ ]: non-standard residue; d: D form. Nle = CCCC[C@H](N)C(=O)O
Could you please report measured Retention_time for the items listed next?
Express it in min; write the number only.

**Q:** What value of Retention_time has been reported for the following molecule? CCCC[C@H](NC(=O)[C@H](Cc1c[nH]c2ccccc12)NC(=O)COCC(=O)NCCCOCCOCCOCCCNC(=O)CN(CCN(CCN(CC(=O)O)CC(=O)O)CC(=O)O)CC(=O)O)C(=O)N[C@@H](CC(=O)O)C(=O)N[C@@H](Cc1ccccc1)C(N)=O
**A:** 22.9

**Q:** Dear colleague, I am looking for the recorded Retention_time of the following molecule: CCCC[C@H](NC(=O)[C@H](Cc1c[nH]c2ccccc12)NC(=O)CCCCCn1cc(COc2cc(OCc3cn(CCCCCC(=O)N[C@@H](Cc4c[nH]c5ccccc45)C(=O)N[C@@H](CCCC)C(=O)N[C@@H](CC(=O)O)C(=O)N[C@@H](Cc4ccccc4)C(N)=O)nn3)cc(OCc3cn(CCCCCC(=O)N[C@@H](Cc4c[nH]c5ccccc45)C(=O)N[C@@H](CCCC)C(=O)N[C@@H](CC(=O)O)C(=O)N[C@@H](Cc4ccccc4)C(N)=O)nn3)c2)nn1)C(=O)N[C@@H](CC(=O)O)C(=O)N[C@@H](Cc1ccccc1)C(N)=O
**A:** 16.6

**Q:** Record request: Retention_time value, item CCCC[C@H](NC(=O)[C@H](Cc1c[nH]c2ccccc12)NC(C)=O)C(=O)N[C@@H](CC(=O)O)C(=O)N[C@@H](Cc1ccccc1)C(N)=O (Ac-W[Nle]DF-NH2)
**A:** 13.3
